- Target Entity: KRas^G12V (Homo sapiens, UniProt P01116, G12V)
- Construct: […]; biotin (biotinylated)
- Sequence (P01116 1-169 isoform P01116-2 G12V): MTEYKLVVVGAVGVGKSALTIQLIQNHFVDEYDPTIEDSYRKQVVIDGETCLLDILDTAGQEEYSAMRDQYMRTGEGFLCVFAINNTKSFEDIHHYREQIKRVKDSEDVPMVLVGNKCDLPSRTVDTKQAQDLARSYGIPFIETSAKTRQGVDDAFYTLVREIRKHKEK
- Procedure Text: KRas binding assay (TR-FRET displacement of Cy5 labelled tracer)
Hi! Could you tag entries with IC50 below 3000 nM as 1.0, and those at or above as 0.0? Much appreciated.

Compound: CCc1cccc2cccc(N3CCc4c(nc(OCC56CCCN5CCC6)nc4N4CCCC(c5ncc(C)s5)C4)C3)c12 (centres unmarked)
Qualitative Label: 1.0
--
Compound: CCc1cccc2cccc(N3CCc4c(nc(OCC56CCCN5CCC6)nc4NC4CCNC(=O)C4)C3)c12 (centres unmarked)
Qualitative Label: 0.0
--
Compound: CCc1cccc2cccc(N3CCc4c(nc(OCC56CCCN5CCC6)nc4NCCS(=O)(=O)N=S(C)(C)=O)C3)c12
Qualitative Label: 0.0
--
Compound: O=C1NC(=O)C2CN(c3nc(OCC45CCCN4CCC5)nc4c3CCN(c3cccc5cccc(Br)c35)C4)CC12 (centres unmarked)
Qualitative Label: 1.0
--
Compound: CCc1cccc2cccc(N3CCc4c(nc(OCC56CCCN5CCC6)nc4N4CCCC(c5noc(C(F)(F)F)n5)C4)C3)c12 (centres unmarked)
Qualitative Label: 0.0
--
Compound: C[C@@]1(O)CCCN(c2nc(OCC34CCCN3CCC4)nc3c2CCN(c2cc(O)cc(Cl)c2C2CC2)C3)C1
Qualitative Label: 1.0
--
Compound: CCc1cccc2cccc(N3CCc4c(nc(OCC56CCCN5CCC6)nc4N4CCC(n5ccnn5)CC4)C3)c12
Qualitative Label: 0.0
--
Compound: CN1CCC[C@H]1COc1nc2c(c(N3CCOCC(C)(O)C3)n1)CCN(c1cccc3cccc(Cl)c13)C2 (some centres unmarked)
Qualitative Label: 0.0
--
Compound: CCc1c(F)ccc2cc(O)cc(N3CCc4c(nc(OC[C@@]56CCCN5C[C@H](F)C6)nc4N4CCCn5nc(C(=O)N6CCCC6)cc5C4)C3)c12
Qualitative Label: 1.0
--
Compound: CCc1c(F)ccc2cc(O)cc(N3CCc4c(nc(OC[C@@]56CCCN5C[C@H](F)C6)nc4N4CC5CC(O)CC4C5)C3)c12 (some centres unmarked)
Qualitative Label: 1.0
--
Compound: Oc1cc(N2CCc3c(nc(OC[C@@]45CCCN4C[C@H](F)C5)nc3N3CCCC4(CC(O)C4)C3)C2)c2c(Cl)c(F)ccc2c1 (some centres unmarked)
Qualitative Label: 1.0
--
Compound: CCc1c(F)ccc2cc(O)cc(N3CCc4c(nc(OC[C@@]56CCCN5C[C@H](F)C6)nc4NCc4ccc5nncn5c4)C3)c12
Qualitative Label: 1.0
--
Compound: CCc1cccc2cccc(N3CCc4c(nc(OCC56CCCN5CCC6)nc4N4CC(CO)OC5(CCC5)C4)C3)c12 (centres unmarked)
Qualitative Label: 1.0
--
Compound: CCc1c(F)ccc2cc(O)cc(N3CCc4c(nc(OCC5(CN(C)C)CC5)nc4N4C[C@@H]5C(=O)NC(=O)[C@@H]5C4)C3)c12
Qualitative Label: 1.0

Where these numbers come from: patent US12421253B2
